Provide the reported IC50 of each item.
Biological target: beta-catenin (human)
Sequence (B6V8E6 146-665 limits assumed): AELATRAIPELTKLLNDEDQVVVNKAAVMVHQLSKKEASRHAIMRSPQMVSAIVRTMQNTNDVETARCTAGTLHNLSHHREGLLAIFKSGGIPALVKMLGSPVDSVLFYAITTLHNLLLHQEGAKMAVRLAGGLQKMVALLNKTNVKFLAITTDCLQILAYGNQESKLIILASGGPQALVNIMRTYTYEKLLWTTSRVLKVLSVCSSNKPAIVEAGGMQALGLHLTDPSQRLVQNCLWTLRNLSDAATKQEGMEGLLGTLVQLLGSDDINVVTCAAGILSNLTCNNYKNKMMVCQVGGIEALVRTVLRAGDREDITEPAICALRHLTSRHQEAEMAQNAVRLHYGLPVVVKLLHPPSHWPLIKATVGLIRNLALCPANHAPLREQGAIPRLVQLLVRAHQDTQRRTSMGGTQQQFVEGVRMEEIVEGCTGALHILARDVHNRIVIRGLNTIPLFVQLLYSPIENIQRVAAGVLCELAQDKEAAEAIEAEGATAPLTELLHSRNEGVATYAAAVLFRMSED
Test: fluorescence polarization
*1 amine or outer side, *2 acyl side, *3 side chain or, on linkers, in order; H or OH if unused. Bridges are numbered along the chain shown (N, C = ends). Primed or numbered codes have the meaning given here. [ ]: non-standard residue; d: D form. B5(4) = 2-amino-2-(pent-4-en-1-yl)hept-6-enoic acid, stapled through each of its two olefin groups with other olefin-containing amino acid residues, O=C(C(CCCC=[*:3])(CCCC=[*:4])N[*:1])[*:2]; PyrS2″ = (S)-3-amino-1-((pent-4-en-1-yloxy)carbonyl)pyrrolidine-3-carboxylic acid (olefin stapling residue), C=CCCCOC(=O)N1CC[C@@](N[*:1])(C(=O)[*:2])C1; TriAzLys″ = azidolysine residue closed into triazole staple, O=C([C@H](CCCCn1cc([*:3])nn1)N[*:1])[*:2]; 2F3MeF″ = aromatic residue, Cc1cccc(C[C@H](N[*:1])C(=O)[*:2])c1F; Phe(3-COOH) = N[C@@H](Cc1cccc(C(=O)O)c1)C(=O)O; 2F3MeF = Cc1cccc(C[C@H](N[*:1])C(=O)[*:2])c1F; Bta = N[C@@H](Cc1csc2ccccc12)C(=O)O; αAllylPro = C=CC[C@@]1(C(=O)O)CCCN1; tBuAla = CC(C)(C)C[C@H](N)C(=O)O; 3Thi = N[C@@H](Cc1ccsc1)C(=O)O; Cha = N[C@@H](CC1CCCCC1)C(=O)O; PyrS2(4) = not defined here; BztA″ = aromatic residue; GlnR = not defined here; sAla = not defined here; Cpg = not defined here; PL3 = not defined here; B5 = not defined here

Request: Return value of IC50 for input Ac-[PL3]D[tBuAla][B5(4)]D[Phe(3-COOH)]AAF[TriAzLys″][PyrS2″][3Thi][Bta][sAla]-NH2 (triazole 10-14; not fully specified (bridges); printed as Ac-PL3-Asp-Npg-B5-Asp-3COOHF-Ala-Ala-Phe-TriAzLys*3-PyrS2-3Thi-BztA-sAla*3-NH2; reading uncertain) [I-20] , no commentary.
Result: < 50 nM

Request: Return value of IC50 for input Ac-[PL3]D[Cha][B5]D[Phe(3-COOH)]AAFK[PyrS2(4)][2F3MeF][Bta][GlnR]L-NH2 (staple 1-4; bridge 10-14; not fully specified (residue 10); printed as Ac-PL3-Asp-Cha-B5-Asp-3COOHF-Ala-Ala-Phe-Lys*3-PyrS2-2F3MeF-BztA-GlnR*3-Leu-NH2; reading uncertain; also: PyrS2 tied into a staple, partner not placed) [I-107] , no commentary.
Result: < 50 nM

Request: Return value of IC50 for input Ac-[αAllylPro]D[tBuAla][B5]D[Phe(3-COOH)][Cpg]AFK[PyrS2″][2F3MeF″][BztA″][GlnR]LS-NH2 (bridge 10-14; not fully specified (bridges); printed as Ac-PL3-Asp-Npg-B5-Asp-3COOHF-Cpg-Ala-Phe-Lys*3-PyrS2-2F3MeF-BztA-GlnR*3-Leu-Ser-NH2; reading uncertain; also: Lys10 and GlnR14 marked *3) [I-139] , no commentary.
Result: < 50 nM
